- System Name: T1, natriuretic peptide receptor-B (human)
- T1 chain: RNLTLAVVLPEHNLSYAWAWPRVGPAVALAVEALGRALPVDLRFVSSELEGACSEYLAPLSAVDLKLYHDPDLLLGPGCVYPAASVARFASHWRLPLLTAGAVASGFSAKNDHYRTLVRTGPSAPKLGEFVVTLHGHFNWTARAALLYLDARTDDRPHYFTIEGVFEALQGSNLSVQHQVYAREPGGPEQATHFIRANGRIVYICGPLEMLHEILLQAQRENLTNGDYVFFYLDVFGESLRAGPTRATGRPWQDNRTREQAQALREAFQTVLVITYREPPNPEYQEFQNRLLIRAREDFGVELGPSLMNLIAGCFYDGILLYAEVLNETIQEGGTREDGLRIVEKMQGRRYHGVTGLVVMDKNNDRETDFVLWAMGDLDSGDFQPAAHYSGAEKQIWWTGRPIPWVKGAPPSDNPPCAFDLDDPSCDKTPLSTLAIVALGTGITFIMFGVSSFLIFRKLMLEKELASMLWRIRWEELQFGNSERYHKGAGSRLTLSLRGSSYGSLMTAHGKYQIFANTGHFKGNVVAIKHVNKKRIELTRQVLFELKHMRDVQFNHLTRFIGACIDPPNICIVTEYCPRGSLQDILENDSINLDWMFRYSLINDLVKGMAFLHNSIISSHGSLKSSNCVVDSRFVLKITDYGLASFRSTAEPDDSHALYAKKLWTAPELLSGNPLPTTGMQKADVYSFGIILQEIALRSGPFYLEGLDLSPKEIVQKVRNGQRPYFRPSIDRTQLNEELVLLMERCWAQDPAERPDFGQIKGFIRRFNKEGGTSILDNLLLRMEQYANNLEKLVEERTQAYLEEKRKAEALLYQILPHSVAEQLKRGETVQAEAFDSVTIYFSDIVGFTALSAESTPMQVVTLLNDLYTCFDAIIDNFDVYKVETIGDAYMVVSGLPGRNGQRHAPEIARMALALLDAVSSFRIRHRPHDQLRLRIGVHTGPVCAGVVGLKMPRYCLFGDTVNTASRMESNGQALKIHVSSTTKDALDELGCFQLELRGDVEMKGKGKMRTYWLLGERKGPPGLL
- Test Summary: cell-based or functional assay
Numbered stars: 1 amine (or outer) side, 2 acyl side, 3 side chain; on linkers, the order of the positions; unused ones are H or OH. Square brackets hold non-standard residues; d marks the D form. Ends that are not written are not given here. * marks the point of attachment. Sni = (S)-nipecotic acid, O=C([C@H]1CCCN([*:1])C1)[*:2]; dGly(2-thienyl) = N[C@@H](C(=O)O)c1cccs1; dDap(Me2) = CN(C)C[C@@H](N)C(=O)O; Hyp = O=C(O)[C@@H]1C[C@@H](O)CN1; NMeL = CN[C@@H](CC(C)C)C(=O)O; AR‑201‑58 = not defined here; ΔPro = O=C(O)[C@@H]1C=CCN1; NHexGly = CCCCCCNCC(=O)O; NMeA = CN[C@@H](C)C(=O)O; Octanoyl = CCCCCCCC(=O)*; dAbu = CC[C@@H](N)C(=O)O; Che = not defined here; Hexanoyl = CCCCCC(=O)*; leu = not defined here; Occ = octanoic acid
Consider the following binders; for each one, report its EC50 group, cGMP in GTM-3 cells.

Input line: # return recorded EC50 group, cGMP in GTM-3 cells for input Hexanoyl-A[dA]FGLKLDRISA-NH2 [JAL-0536]
Output line: ≤ 5 µM

Input line: In one line, give reported EC50 group, cGMP in GTM-3 cells of the entry [AR‑201‑58]F[dR]L[Hyp][NMeL]DRI-NH2 (reading uncertain; also: printed as (AR-201-58)-Phe-arg-Leu-Hyp-Nml-Asp-Arg-Ile-NH2) [JAL-1339] .
Output line: ≤ 15 µM

Input line: Kindly indicate its recorded EC50 group, cGMP in GTM-3 cells. Item: Octanoyl-AF[leu]L[Hyp][NMeL]D[ΔPro]I-NH2 (not fully specified (some residues); printed as Occ-ala-Phe-leu-Leu-Hyp-Nml-Asp-Dhp-Ile-NH2; reading uncertain) [JAL-1479]
Output line: ≤ 5 µM

Input line: Tell us which EC50 group, cGMP in GTM-3 cells value is on record for [NHexGly][Sni]FLL[Hyp][NMeL]DRI-NH2 (not fully specified (residue 4); printed as (1625-Ac)-Sni-Phe-leu-Leu-Hyp-Nml-Asp-Arg-Ile-NH2) [JAL-1907]
Output line: ≤ 5 µM

Input line: Please supply the value of reported EC50 group, cGMP in GTM-3 cells for the item Octanoyl-[Sni]FLL[Hyp]IDP[Che] (not fully specified (some residues); printed as Occ-Sni-Phe-leu-Leu-Hyp-Ile-Asp-Pro-Che; reading uncertain) [JAL-1596]
Output line: ≤ 5 µM

Input line: Look up and report measured EC50 group, cGMP in GTM-3 cells for this entry: Octanoyl-[dA]F[dAbu]LPLDRI-NH2 [JAL-1019]
Output line: ≤ 5 µM

Input line: Read the entry [Occ][dA]F[dL]L[Hyp][NMeL][dGly(2-thienyl)]RI-NH2 [JAL-1558] and write its reported EC50 group, cGMP in GTM-3 cells.
Output line: ≤ 1 µM

Input line: State, in one line, measured EC50 group, cGMP in GTM-3 cells of Octanoyl-AFRL[NMeA][NMeL]DRI-NH2 (not fully specified (some residues); printed as Occ-ala-Phe-arg-Leu-Nma-Nml-Asp-Arg-Ile-NH2) [JAL-1230]
Output line: ≤ 15 µM

Input line: Give the value of EC50 group, cGMP in GTM-3 cells reported for the following: [Occ][Sni]F[dDap(Me2)]L[Hyp][NMeL]DPI-NH2 [JAL-1580]
Output line: ≤ 1 µM

// data source = patent US9187525B2
